Target: NS3-NS4A protease (Hepatitis C virus genotype 1a, UniProt P27958)
Construct: Recombinant E. coli or Baculovirus full-length NS3 was diluted to 3.33 μM with assay buffer; made in house; host or cells: E. coli or baculovirus (BV) system
Sequence (P27958 1027-1657): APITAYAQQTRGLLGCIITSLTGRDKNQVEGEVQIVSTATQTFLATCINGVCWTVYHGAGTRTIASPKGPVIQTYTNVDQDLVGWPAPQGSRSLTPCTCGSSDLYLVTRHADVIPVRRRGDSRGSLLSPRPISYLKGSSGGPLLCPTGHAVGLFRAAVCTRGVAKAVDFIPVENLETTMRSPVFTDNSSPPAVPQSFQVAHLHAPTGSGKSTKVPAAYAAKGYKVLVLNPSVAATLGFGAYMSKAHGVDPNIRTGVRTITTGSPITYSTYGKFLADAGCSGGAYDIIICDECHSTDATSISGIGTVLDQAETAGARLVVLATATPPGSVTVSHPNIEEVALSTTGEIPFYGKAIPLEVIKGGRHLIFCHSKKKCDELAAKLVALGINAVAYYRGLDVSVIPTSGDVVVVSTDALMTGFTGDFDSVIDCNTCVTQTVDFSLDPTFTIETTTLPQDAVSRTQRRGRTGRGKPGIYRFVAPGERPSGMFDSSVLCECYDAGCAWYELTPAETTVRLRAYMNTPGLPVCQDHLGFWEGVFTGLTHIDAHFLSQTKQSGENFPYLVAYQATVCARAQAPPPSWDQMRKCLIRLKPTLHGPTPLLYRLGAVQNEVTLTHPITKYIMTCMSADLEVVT
Assay: NS3-NS4A protease assay (NS3 inhibition assay, RETS1 substrate), Section B
Type: biochemical
Details: read-out: NS3-NS4A IC50
Observed property: IC50

A selection of reference data follows.
Smiles input	Subject of test	Reported value
CC(C)(C)OC(=O)N[C@H]1CCCCC/C=C\[C@@H]2C[C@@]2(C(=O)O)NC(=O)[C@@H]2C[C@@H](NC(=S)N3CCc4ccccc4C3)CN2C1=O	NS3-NS4A protease (Hepatitis C virus genotype 1a, UniProt P27958)	< 1 µM
COc1ccccc1C1CCN(C(=O)O[C@@H]2C[C@H]3C(=O)N[C@]4(C(=O)O)C[C@H]4/C=C\CCCCC[C@H](NC(=O)OC(C)(C)C)C(=O)N3C2)CC1	NS3-NS4A protease (Hepatitis C virus genotype 1a, UniProt P27958)	< 10 µM

Next compound, IC50 to be filled in.
*Q* Give the measured IC50 for O=C(N[C@H]1CCCCC/C=C\[C@@H]2C[C@@]2(C(=O)NS(=O)(=O)C2CC2)NC(=O)[C@@H]2C[C@@H](OC(=O)N3CCc4ccccc4C3)CN2C1=O)OCC(F)F
*A* < 0.1 µM

====

Readings of pIC50 for the listed compounds
Target: NS3-NS4 protease (Hepatitis C virus genotype 1a, UniProt P27958)
Construct: Recombinant E. coli or Baculovirus full-length NS3 was diluted to 3.33 μM with assay buffer; made in house; host or cells: E. coli or baculovirus (BV) system
Sequence (P27958 1027-1657): as above
Assay: NS3-NS4 protease assay / NS3 inhibition assay, Section C
Format: biochemical
Conditions: read-out: NS3-NS4 IC50
pIC50: −log10 of the molar value.

A selection of reference data follows.
Compound	Subject of test	pIC50
CC(C)(C)OC(=O)N[C@H]1CCCCC/C=C\[C@@H]2C[C@@]2(C(=O)NS(=O)(=O)N(CCC#N)C2CC2)NC(=O)[C@@H]2C[C@@H](OC(=O)N3Cc4ccccc4C3)CN2C1=O	NS3-NS4 protease (Hepatitis C virus genotype 1a, UniProt P27958)	> 7.00
CN1CCC(N(C2CC2)S(=O)(=O)NC(=O)[C@@]23C[C@H]2/C=C\CCCCC[C@H](NC(=O)OC(C)(C)C)C(=O)N2C[C@H](OC(=O)N4Cc5ccccc5C4)C[C@H]2C(=O)N3)CC1	NS3-NS4 protease (Hepatitis C virus genotype 1a, UniProt P27958)	> 6.00
CC(C)(C)OC(=O)N[C@H]1CCCCC/C=C\[C@@H]2C[C@@]2(C(=O)NS(=O)(=O)NC2CC2)NC(=O)[C@@H]2C[C@@H](OC(=O)N3Cc4ccc(Cl)cc4C3)CN2C1=O	NS3-NS4 protease (Hepatitis C virus genotype 1a, UniProt P27958)	> 7.00
CC(C)(C)OC(=O)N[C@H]1CCCCC/C=C\[C@@H]2C[C@@]2(C(=O)NS(=O)(=O)NC2CCC2)NC(=O)[C@@H]2C[C@@H](OC(=O)N3Cc4ccccc4C3)CN2C1=O	NS3-NS4 protease (Hepatitis C virus genotype 1a, UniProt P27958)	> 7.00
CC(C)N(C(C)C)S(=O)(=O)NC(=O)[C@@]12C[C@H]1/C=C\CCCCC[C@H](NC(=O)OC(C)(C)C)C(=O)N1C[C@H](OC(=O)N3Cc4ccccc4C3)C[C@H]1C(=O)N2	NS3-NS4 protease (Hepatitis C virus genotype 1a, UniProt P27958)	> 7.00

*Q* Give the measured pIC50 for CC(C)(C)OC(=O)N[C@H]1CCCCC/C=C\[C@@H]2C[C@@]2(C(=O)NS(=O)(=O)NC2(C#N)CC2)NC(=O)[C@@H]2C[C@@H](OC(=O)N3Cc4ccccc4C3)CN2C1=O
*A* > 7.00

*Q* Give the measured pIC50 for COc1ccc(NS(=O)(=O)NC(=O)[C@@]23C[C@H]2/C=C\CCCCC[C@H](NC(=O)OC(C)(C)C)C(=O)N2C[C@H](OC(=O)N4Cc5ccccc5C4)C[C@H]2C(=O)N3)cc1
*A* > 7.00

*Q* Give the measured pIC50 for CC(C)(C)OC(=O)N[C@H]1CCCCC/C=C\[C@@H]2C[C@@]2(C(=O)NS(=O)(=O)N2CCC2)NC(=O)[C@@H]2C[C@@H](OC(=O)N3Cc4ccccc4C3)CN2C1=O
*A* > 7.00

====

Readings of IC50 for the listed compounds
Molecular target: NS3-NS4A protease (Hepatitis C virus genotype 1a, UniProt P27958)
Construct: Recombinant E. coli or Baculovirus full-length NS3 was diluted to 3.33 μM with assay buffer; made in house; host or cells: E. coli or baculovirus (BV) system
Assay: NS3-NS4A protease assay (NS3 inhibition assay, RETS1 substrate), Section B
Type: biochemical
Details: read-out: NS3-NS4A IC50

Smiles input	IC50
CC(C)(C)OC(=O)N[C@H]1CCCCC/C=C\[C@@H]2C[C@@]2(C(=O)O)NC(=O)[C@@H]2C[C@@H](OC(=O)N3CCc4cc(N)ccc4C3)CN2C1=O	< 1000 nM
O=C(NC1CCCC1)N[C@H]1CCCCC/C=C\[C@@H]2C[C@@]2(C(=O)NS(=O)(=O)C2CC2)NC(=O)[C@@H]2C[C@@H](NC(=O)N3Cc4ccccc4C3)CN2C1=O	< 100 nM
CC(C)(C)OC(=O)N[C@H]1CCCCC/C=C\[C@@H]2C[C@@]2(C(=O)O)NC(=O)[C@@H]2C[C@@H](NC(=O)N3CCc4ccccc4C3)CN2C1=O	< 10000 nM
CC(C)(C)OC(=O)N[C@H]1CCCCC/C=C\[C@@H]2C[C@@]2(C(=O)NS(=O)(=O)c2cc(C(=O)O)ccc2Cl)NC(=O)[C@@H]2C[C@@H](OC(=O)N3Cc4ccccc4C3)CN2C1=O	< 100 nM
CC(C)(C)OC(=O)N[C@H]1CCCCC/C=C\[C@@H]2C[C@@]2(C(=O)O)NC(=O)[C@@H]2C[C@@H](OC(=O)N3CCc4ncncc4C3)CN2C1=O	< 50000 nM
CC(C)(C)OC(=O)N[C@H]1CCCCC/C=C\[C@@H]2C[C@@]2(C(=O)NS(=O)(=O)C2CC2)NC(=O)[C@@H]2C[C@@H](OC(=O)N3CCc4ccccc4C3)CN2C1=O	< 100 nM
CC(C)(C)OC(=O)N[C@H]1CCCCC/C=C\[C@@H]2C[C@@]2(C(=O)NS(=O)(=O)c2ccccc2)NC(=O)[C@@H]2C[C@@H](OC(=O)N3CCc4ccccc4C3)CN2C1=O	< 100 nM
CC(C)(C)OC(=O)N[C@H]1CCCCC/C=C\[C@@H]2C[C@@]2(C(=O)O)NC(=O)[C@@H]2C[C@@H](OC(=O)N3CCc4nc(Nc5ccccc5)sc4C3)CN2C1=O	< 1000 nM
CC(C)(C)OC(=O)N[C@H]1CCCCC/C=C\[C@H]2C[C@]2(C(=O)O)NC(=O)[C@@H]2C[C@@H](OC(=O)N3CCc4ccccc4C3)CN2C1=O	< 50000 nM
CC(C)(C)NC(=O)N[C@H]1CCCCC/C=C\[C@@H]2C[C@@]2(C(=O)NS(=O)(=O)C2CC2)NC(=O)[C@@H]2C[C@@H](OC(=O)N3CCc4ccccc4C3)CN2C1=O	< 100 nM

*Q* Give the measured IC50 for C[C@@H]1CN(C(=O)O[C@@H]2C[C@H]3C(=O)N[C@]4(C(=O)O)C[C@H]4/C=C\CCCCC[C@H](NC(=O)OC(C)(C)C)C(=O)N3C2)Cc2ccccc21
*A* < 1000 nM

*Q* Give the measured IC50 for CC(C)(C)OC(=O)N[C@H]1CCCCC/C=C\[C@@H]2C[C@@]2(C(=O)NS(=O)(=O)C2CC2)NC(=O)[C@@H]2C[C@@H](OC(=O)N3Cc4ccc(OCCOC(=O)N5CCOCC5)cc4C3)CN2C1=O
*A* < 100 nM

====

Readings of pIC50 for the listed molecules
Biological target: NS3-NS4A protease (Hepatitis C virus genotype 1a)
Construct: Recombinant E. coli or Baculovirus full-length NS3 was diluted to 3.33 μM with assay buffer; made in house; host or cells: E. coli or baculovirus (BV) system
Assay: NS3-NS4A protease assay (NS3 inhibition assay, RETS1 substrate), Section B
Assay type: biochemical
Settings: read-out: NS3-NS4A IC50
pIC50: −log10 of the molar value.

Molecule	Reported value
CC(C)(C)OC(=O)N[C@H]1CCCCC/C=C\[C@@H]2C[C@@]2(C(=O)NS(=O)(=O)c2cccs2)NC(=O)[C@@H]2C[C@@H](OC(=O)N3Cc4ccccc4C3)CN2C1=O [AR00365427]	> 7.00

*Q* Give the measured pIC50 for C[C@H]1CN(C(=O)O[C@@H]2C[C@H]3C(=O)N[C@]4(C(=O)O)C[C@H]4C=CCCCCC[C@H](NC(=O)OC(C)(C)C)C(=O)N3C2)Cc2ccccc21 [AR00320122]
*A* > 6.00

*Q* Give the measured pIC50 for CC1CN(C(=O)O[C@@H]2C[C@H]3C(=O)N[C@]4(C(=O)O)C[C@H]4C=CCCCCC[C@H](NC(=O)OC(C)(C)C)C(=O)N3C2)Cc2ccccc21 (some centres unmarked) [AR00304067]
*A* > 6.00
